Measured Ki by item
- target or test system: 5HT2A receptor (Homo sapiens, UniProt P28223)
- Sequence (P28223 whole entry): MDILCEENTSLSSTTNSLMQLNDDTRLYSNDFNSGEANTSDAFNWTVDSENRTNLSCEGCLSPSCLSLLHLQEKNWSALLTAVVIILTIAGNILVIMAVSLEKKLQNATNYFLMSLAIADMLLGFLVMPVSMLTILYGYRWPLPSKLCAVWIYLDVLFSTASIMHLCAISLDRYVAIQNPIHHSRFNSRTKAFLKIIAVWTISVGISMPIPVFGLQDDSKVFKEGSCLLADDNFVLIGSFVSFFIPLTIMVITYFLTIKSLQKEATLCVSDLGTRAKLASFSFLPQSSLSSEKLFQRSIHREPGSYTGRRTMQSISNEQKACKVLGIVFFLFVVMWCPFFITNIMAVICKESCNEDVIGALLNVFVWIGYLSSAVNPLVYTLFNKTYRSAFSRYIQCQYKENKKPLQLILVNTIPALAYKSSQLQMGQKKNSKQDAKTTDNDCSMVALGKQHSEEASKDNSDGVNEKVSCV
- assay overview: biochemical
- Assay type: binding
- Parameters: expressed in transfected cells; crude membranes
- test parameters: 5HT2A Ki (nM), secondary radioligand binding, Ki from IC50 by Cheng-Prusoff

Below are worked cases with known answers.
smiles text | Ki
Clc1ccc2c(C3=CCCNC3)c[nH]c2c1 | 160 nM
COc1cccc2[nH]nc(C3=CCCN(C)C3)c12 | 349 nM
Cc1cccc2[nH]nc(C3=CCCNC3)c12 | 254 nM
Fc1cccc2[nH]nc(C3=CCCNC3)c12 | 348 nM
CN1CCC=C(c2c[nH]c3ncc(-c4ccccc4)cc23)C1 | 156 nM
COc1ccc2[nH]nc(C3=CCCN(C)C3)c2c1 | 501 nM
Cn1cc(C2=CCCNC2)c2cccnc21 | 796 nM
Cc1ccc2c(C3=CCCN(C)C3)n[nH]c2c1 | 2920 nM

Prompt: Need Ki, item CN1CCC=C(c2n[nH]c3c(F)cccc23)C1
Response: 883 nM

Prompt: Need Ki, item COc1cccc2c(C3=CCCN(C)C3)n[nH]c12
Response: > 10000 nM

Prompt: Need Ki, item Cc1cccc2c(C3=CCCN(Cc4ccccc4)C3)c[nH]c12
Response: 115 nM

Prompt: Need Ki, item Cc1cnc2[nH]cc(C3=CCCNC3)c2c1
Response: 1720 nM

* * *

- target or test system: 5HT2A receptor (Homo sapiens, UniProt P28223)
- assay overview: cell-based
- Parameters: expressed in transfected cells; host or cells: HEK293T cells, transient co-transfection
- test parameters: BRET2 Gαq dissociation, HEK293T; read-out: 5HTA Gq EC50
Measured log10(EC50) by item
Recall that a logarithmic scale is used here: each number is log10 of EC50 in nM.

compound | target or test system | log10(EC50)
CN1CCC=C(c2n[nH]c3c(Cl)cc(F)cc23)C1 | 5HT2A receptor (Homo sapiens, UniProt P28223) | 1.11
Clc1cccc2c(C3=CCNC3)c[nH]c12 | 5HT2A receptor (Homo sapiens, UniProt P28223) | 0.91
CCCN1CCC=C(c2c[nH]c3c(CC)cccc23)C1 | 5HT2A receptor (Homo sapiens, UniProt P28223) | 1.89
CCCN1CCC=C(c2c[nH]c3c(C)cccc23)C1 | 5HT2A receptor (Homo sapiens, UniProt P28223) | 1.47
Fc1ccc(Cl)c2[nH]nc(C3=CCCNC3)c12 | 5HT2A receptor (Homo sapiens, UniProt P28223) | 0.86

Prompt: Need log10(EC50), item CN1CC=C(c2c[nH]c3c(Cl)cccc23)C1
Response: 1.52

Prompt: Need log10(EC50), item CCCN1CCC=C(c2c[nH]c3c(F)cccc23)C1
Response: 1.31

Prompt: Need log10(EC50), item Clc1cccc2c(C34CNCC3C4)n[nH]c12 (single isomer, unassigned)
Response: 1.79

* * *

Measured Emax by item
- target or test system: 5HT2A receptor (Homo sapiens)
- assay overview: cell-based
- Parameters: expressed in transfected cells; host or cells: HEK293T cells, transient co-transfection
- test parameters: HEK-293T, BRET2 Gαq dissociation, HEK293T, normalized to 5-HT; read-out: 5HTA Gq Emax (%)
Field format: number, assumed %, no unit text.

Below are worked cases with known answers.
compound | Emax / %
Fc1cc(Cl)c2[nH]nc(C3=CCCNC3)c2c1 [Example 129] | 88.8
CN1CCC=C(c2c[nH]c3ccncc23)C1 [Example 136] | 92.5

Prompt: Need Emax, item CCN1CCC=C(c2nn(CC)c3c(Cl)cccc23)C1 [Example 146]
Response: 54.5

Prompt: Need Emax, item Clc1cccc2c(C3=CN4CCC3CC4)c[nH]c12 [Example 250]
Response: 73.1

Prompt: Need Emax, item FC(F)(F)CCN1CCC=C(c2n[nH]c3c(Cl)cccc23)C1 [Example 164]
Response: 52.9

* * *

Measured Emax by item
- target or test system: 5HT2A receptor (Homo sapiens, UniProt P28223)
- assay overview: cell-based
- Set-up: expressed in transfected cells; host or cells: HEK293T cells, transient co-transfection
- test parameters: HEK-293T, BRET1 beta-arrestin2 recruitment, HEK293T cells, normalized to 5-HT; read-out: 5HT2A β-Arr Emax (%)
Field format: number, assumed %, no unit text.

Below are worked cases with known answers.
smiles text | numeric readout
Cc1cccc2c(C3=CCCN(Cc4ccccc4)C3)c[nH]c12 | 42.4
CN1CCC=C(c2n[nH]c3c(C#N)cccc23)C1 | 72.5
N#Cc1cccc2c(C3=CCCNC3)n[nH]c12 | 86
Cc1cccc2[nH]nc(C3=CCCN(C)C3)c12 | 64.6
CN1CCC=C(c2n[nH]c3ccccc23)C1 | 21.9
C=CCN1CCC=C(c2n[nH]c3c(Cl)cccc23)C1 | 35.3

Prompt: Need Emax, item COc1ccc2[nH]nc(C3=CCCN(C)C3)c2c1
Response: 83.7

Prompt: Need Emax, item CN1CCC=C(c2n[nH]c3c(Cl)cccc23)C1
Response: 66.8

Prompt: Need Emax, item Cc1cccc2c(C3=CCCNC3)n[nH]c12
Response: 64.8

Prompt: Need Emax, item Clc1cnc2[nH]cc(C3=CCCNC3)c2c1
Response: 43.8

* * *

Measured Ki by item
- target or test system: 5HT2A receptor (Homo sapiens, UniProt P28223)
- assay overview: biochemical
- Format: binding
- Parameters: expressed in transfected cells; crude membranes
- test parameters: 5HT2A Ki (nM), secondary radioligand binding, Ki from IC50 by Cheng-Prusoff
Field format: number, assumed nM, no unit text.

Below are worked cases with known answers.
compound | measurement units | Ki
Fc1cccc2c(C3=CCCNC3)n[nH]c12 | nM | 1390
CCc1cccc2c(C3=CCCN(Cc4ccccc4)C3)c[nH]c12 | nM | 199
Clc1[nH]c2ccccc2c1C1=CCCNC1 | nM | 186
N#Cc1cccc2c(C3=CCCNC3)n[nH]c12 | nM | 237
Clc1cccc2c(C3=CCCN(Cc4ccccc4)C3)c[nH]c12 | nM | 90.2
C1=C(c2c[nH]c3ncc(-c4ccccc4)cc23)CNCC1 | nM | 613
Clc1ccnc2[nH]cc(C3=CCCNC3)c12 | nM | 273
Clc1cccc2c(C3CCCNC3)n[nH]c12 (stereo not shown) | nM | 1240

Prompt: Need Ki, item COc1ccc2c(C3=CCCN(C)C3)c[nH]c2c1
Response: 8500

* * *

- target or test system: UniProt P28223
- assay overview: cell-based
- Set-up: expressed in transfected cells; host or cells: HEK293T cells, transient co-transfection
- test parameters: HEK-293T, BRET1 beta-arrestin2 recruitment, HEK293T cells, normalized to 5-HT; read-out: 5HT2A β-Arr Emax (%)
endpoint: Emax (%)
Field format: number, assumed %, no unit text.

compound | target or test system | Emax (%)
Fc1ccc2c(C3=CCCNC3)n[nH]c2c1 [Example 78] | UniProt P28223 | 59.4

Prompt: Need Emax, item Clc1ccc2c(C3=CCCNC3)c[nH]c2c1 [Example 31]
Response: 112

Prompt: Need Emax, item CN1CCC=C(c2c[nH]c3nccc(F)c23)C1 [Example 117]
Response: 51.1

Prompt: Need Emax, item CN1CCC=C(c2c[nH]c3c(Cl)cccc23)C1 [Example 44]
Response: 37.6

Prompt: Need Emax, item Cc1ccnc2[nH]cc(C3=CCCNC3)c12 [Example 9]
Response: 72.8

* * *

- target or test system: 5HT2A receptor (Homo sapiens, UniProt P28223)
- assay overview: cell-based
- Design: expressed in transfected cells; host or cells: HEK293T cells, transient co-transfection
- test parameters: HEK-293T, BRET2 Gαq dissociation, HEK293T, normalized to 5-HT; read-out: 5HTA Gq Emax (%)
Measured Emax by item
Field format: number, assumed %, no unit text.

Below are worked cases with known answers.
compound | Emax (%)
CCc1cccc2c(C3=CCCN(C4CC4)C3)n[nH]c12 | 42.2
CN1CCC=C(c2c[nH]c3cnccc23)C1 | 77.8
CCN1CCC=C(c2n[nH]c3c(Cl)cccc23)C1 | 64.4

// next item, Emax requested
Prompt: Need Emax, item N#Cc1cccc2c(C34CNCC3C4)n[nH]c12 (stereo not shown)
Response: 103

* * *

- target or test system: 5HT2A receptor (Homo sapiens, UniProt P28223)
- assay overview: biochemical
- Format: binding
- Parameters: expressed in transfected cells; crude membranes
- test parameters: 5HT2A Ki (nM), secondary radioligand binding, Ki from IC50 by Cheng-Prusoff
Measured Ki by item

smiles text | target or test system | result
CN1CCC=C(c2c[nH]c3c(CO)cccc23)C1 | 5HT2A receptor (Homo sapiens, UniProt P28223) | > 10000 nM
COc1ccc2c(C3=CCCNC3)c[nH]c2c1 | 5HT2A receptor (Homo sapiens, UniProt P28223) | > 10000 nM

// next item, Ki requested
Prompt: Please provide the recorded Ki for O=C(O)c1cccc2c(C3=CCCN(Cc4ccccc4)C3)c[nH]c12 , tested on 5HT2A receptor (Homo sapiens, UniProt P28223).
Response: > 10000 nM
